Molecular target: recombinant rat MASP2 active protease (amino acids 296-685, C-terminal His Tag) (rat, UniProt Q9JJS8 296-685)
Sequence (Q9JJS8 other isoform, or with tags, fused parts or gaps limits assumed): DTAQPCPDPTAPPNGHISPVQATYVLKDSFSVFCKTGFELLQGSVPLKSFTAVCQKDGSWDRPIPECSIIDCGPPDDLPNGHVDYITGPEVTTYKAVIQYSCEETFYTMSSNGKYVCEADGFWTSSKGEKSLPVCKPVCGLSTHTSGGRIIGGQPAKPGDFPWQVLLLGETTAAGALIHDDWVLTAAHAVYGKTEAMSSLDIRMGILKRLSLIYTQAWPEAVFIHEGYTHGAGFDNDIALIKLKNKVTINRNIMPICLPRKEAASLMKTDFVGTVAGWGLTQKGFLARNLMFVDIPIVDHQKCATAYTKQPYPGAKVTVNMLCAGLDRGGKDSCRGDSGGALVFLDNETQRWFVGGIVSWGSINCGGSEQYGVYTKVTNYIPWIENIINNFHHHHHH
Assay: cell-based or functional assay
Bridge positions count the residues as written; N and C are the ends. Square brackets hold non-standard residues; d marks the D form. Ends that are not written are not given here. Oic = O=C(O)[C@@H]1C[C@@H]2CCCC[C@@H]2N1; PEG8 = NCCOCCOCCOCCOCCOCCOCCOCCOCCC(=O)O; Pen = CC(C)(S)[C@H](N)C(=O)O; Sar = CNCC(=O)O
Classify as follows. Reported rat MASP2 IC50 greater than or equal to 50 nM: Condition met. Reported rat MASP2 IC50 below: Condition not met.

// known answers, use as guide
{"columns": ["binder", "group"],
 "data": [
  ["[Sar]ICSRSLP[Oic]I[Pen]IP-{PEG5‑CH2CO2H (18 atoms)-NH2} (disulfide 3-11) [Example 83: ((N-Me)G)-IC+SRSLP-(Oic)-I-(Pen)+IP-(PEG5-CH2CO2H (18 atoms))-NH2]", "Condition not met"],
  ["[Sar]ICSRSLP[Oic]I[Pen]IPD[PEG8]-NH2 (disulfide 3-11; N-terminus assumed; SMILES CC[C@H](C)[C@H](NC(=O)CNC)C(=O)N[C@H]1CSSC(C)(C)[C@@H](C(=O)N[C@H](C(=O)N2CCC[C@H]2C(=O)N[C@@H](CC(=O)O)C(=O)NCCOCCOCCOCCOCCOCCOCCOCCOCCC(N)=O)[C@@H](C)CC)NC(=O)[C@H]([C@@H](C)CC)NC(=O)[C@@H]2C[C@@H]3CCCC[C@@H]3N2C(=O)[C@@H]2CCCN2C(=O)[C@H](CC(C)C)NC(=O)[C@H](CO)NC(=O)[C@H](CCCNC(=N)N)NC(=O)[C@H](CO)NC1=O) [Example 141: ((N-Me)G)-IC+SRSLP-(Oic)-I-(Pen)+IPD-(PEG8(28 atoms))-NH2]", "Condition met"]
]}

-- ask Decide: is the reported value of rat MASP2 IC50 for [Sar]ICSRSLP[Oic]I[Pen]IPGD-OH (disulfide 3-11; N-terminus assumed; SMILES CC[C@H](C)[C@H](NC(=O)CNC)C(=O)N[C@H]1CSSC(C)(C)[C@@H](C(=O)N[C@H](C(=O)N2CCC[C@H]2C(=O)NCC(=O)N[C@@H](CC(=O)O)C(=O)O)[C@@H](C)CC)NC(=O)[C@H]([C@@H](C)CC)NC(=O)[C@@H]2C[C@@H]3CCCC[C@@H]3N2C(=O)[C@@H]2CCCN2C(=O)[C@H](CC(C)C)NC(=O)[C@H](CO)NC(=O)[C@H](CCCNC(=N)N)NC(=O)[C@H](CO)NC1=O) [Example 464: ((N-Me)G)-IC+SRSLP-(Oic)-I-(Pen)+IPGD-OH] equal to or greater than 50 nM?
-- reply Condition met

-- ask Quick check, rat MASP2 IC50 >= 50 nM? [(R)‑Piperidine‑3‑Carboxylic Acid]ICSRSLP[Oic]I[Pen]IPD-OH (disulfide 3-11) [Example 488: ((R)-Piperidine-3-Carboxylic Acid)-IC+SRSLP-(Oic)-I-(Pen)+IPD-OH]
-- reply Condition not met
